# Subject of test: T1, recombinant bovine Aggrecan G1-IGD-G2 (bovine, UniProt P13608 20-684, limits assumed)
# T1 construct: also called Bov G1-IGD-G2; Boy G1-IGD-G2
# Assay method text: ELISA on recombinant G1-IGD-G2
pEC50: −log10 of the molar value.
Here, each record is paired with measured pEC50 data.
Readout name: pEC50

| Binder | Assay result |
| --- | --- |
| C01010109 (ALB26-608A05-608A05) (VHH, not shown: small tags and cut ends) VHH 1: DVQLVESGGGLVQPGGSLRLSCAASGRTFSTYTMGWFRQAPGKEREFVAAISWSGGTTYYADSVKGRFTISRDNSKNTVYLQMNSLRPEDTAVYYCAARPRYYYYSLYSYDYWGQGTLVTVSS VHH 2: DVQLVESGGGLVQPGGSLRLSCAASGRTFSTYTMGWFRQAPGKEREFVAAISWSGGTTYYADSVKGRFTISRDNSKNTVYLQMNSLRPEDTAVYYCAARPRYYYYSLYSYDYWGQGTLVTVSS | 10.11 |
| C01010097 (608A05-ALB26) (VHH, not shown: small tags and cut ends) VHH: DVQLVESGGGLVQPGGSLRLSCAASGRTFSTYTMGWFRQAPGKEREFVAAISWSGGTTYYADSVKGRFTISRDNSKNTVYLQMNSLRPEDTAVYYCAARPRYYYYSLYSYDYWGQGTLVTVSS | 9.55 |
| C01010094 (604F02-ALB26) (VHH, not shown: small tags and cut ends, also called C010100094) VHH: DVQLVESGGGLVQPGGSLRLSCAASGRTFSSYTMGWFRQAPGKEREFVAAISWSGGRTYYADSVKGRFTISRDNSKNTVYLQMNSLRPEDTAVYYCAAYRRRRASSNRGLWDYWGQGTLVTVSS | 8.80 |
| C01010054 (114F08-ALB26) (VHH, not shown: small tags and cut ends, also called C010100054) VHH: EVQLVESGGGLVQAGGSLRLSCAASGSTFIINVVRWYRRTPGKQRELVATISSGGNANYVDSVRGRFSISRDGAKNAVDLQMNGLKPEDTAVYYCNVPTTHYGGVYYGPYWGQGTQVTVSS | 8.25 |
| C01010046 (601E08-ALB26) (VHH, not shown: small tags and cut ends) VHH: DVQLVESGGGLVQPGGSLRLSCTASGRTFSSYAVGWFRQAPGKEREFVAAISRSGRSTYYADSVKGRFTISRDNSKNTVYLQMNSLRPEDTAVYYCAAGLSYYSPHAYYDYWGQGTLVTVSS | 8.92 |
